Overview of recorded self-cleavage kobs at 40 uM GlcN6P for various variants
B1: glmS ribozyme (parent)
chain: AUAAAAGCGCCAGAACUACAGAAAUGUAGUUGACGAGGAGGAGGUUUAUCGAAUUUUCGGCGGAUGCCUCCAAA

Variants of: B1
ASSAY_SUMMARY: self-cleavage kobs at 40 uM GlcN6P; higher = faster cleavage; RNA array
ASSAY_CONTEXT: with glucosamine-6-phosphate
Fewer inactive variants are shown than the library holds.

Here are 3 variants together with their reported answers.
[
  {
    "VARIANT_DESIGNATION": "A39U G40C",
    "VALUE": "0.00011 s⁻¹"
  },
  {
    "VARIANT_DESIGNATION": "G35C A42G U49A G66C",
    "VALUE": "< 1e-05 s⁻¹"
  },
  {
    "VARIANT_DESIGNATION": "C16G U55G",
    "VALUE": "0.000147 s⁻¹"
  }
]

[ask] Give the measured self-cleavage kobs at 40 uM GlcN6P of A6U A39U G40A .
[reply] < 1e-05 s⁻¹

[ask] Give the measured self-cleavage kobs at 40 uM GlcN6P of G13A A36G C50G G66C .
[reply] 0.000105 s⁻¹

[ask] Give the measured self-cleavage kobs at 40 uM GlcN6P of A42G A52G U65G .
[reply] < 1e-05 s⁻¹

[ask] Give the measured self-cleavage kobs at 40 uM GlcN6P of G32C A39C .
[reply] < 1e-05 s⁻¹

[ask] Give the measured self-cleavage kobs at 40 uM GlcN6P of U54A C71A .
[reply] 0.000351 s⁻¹
